system name: H+/K+ ATPase (Oryctolagus cuniculus, UniProt P27112)
Construct: The stomach tissue of the rabbit was separated
Sequence (P27112 whole entry): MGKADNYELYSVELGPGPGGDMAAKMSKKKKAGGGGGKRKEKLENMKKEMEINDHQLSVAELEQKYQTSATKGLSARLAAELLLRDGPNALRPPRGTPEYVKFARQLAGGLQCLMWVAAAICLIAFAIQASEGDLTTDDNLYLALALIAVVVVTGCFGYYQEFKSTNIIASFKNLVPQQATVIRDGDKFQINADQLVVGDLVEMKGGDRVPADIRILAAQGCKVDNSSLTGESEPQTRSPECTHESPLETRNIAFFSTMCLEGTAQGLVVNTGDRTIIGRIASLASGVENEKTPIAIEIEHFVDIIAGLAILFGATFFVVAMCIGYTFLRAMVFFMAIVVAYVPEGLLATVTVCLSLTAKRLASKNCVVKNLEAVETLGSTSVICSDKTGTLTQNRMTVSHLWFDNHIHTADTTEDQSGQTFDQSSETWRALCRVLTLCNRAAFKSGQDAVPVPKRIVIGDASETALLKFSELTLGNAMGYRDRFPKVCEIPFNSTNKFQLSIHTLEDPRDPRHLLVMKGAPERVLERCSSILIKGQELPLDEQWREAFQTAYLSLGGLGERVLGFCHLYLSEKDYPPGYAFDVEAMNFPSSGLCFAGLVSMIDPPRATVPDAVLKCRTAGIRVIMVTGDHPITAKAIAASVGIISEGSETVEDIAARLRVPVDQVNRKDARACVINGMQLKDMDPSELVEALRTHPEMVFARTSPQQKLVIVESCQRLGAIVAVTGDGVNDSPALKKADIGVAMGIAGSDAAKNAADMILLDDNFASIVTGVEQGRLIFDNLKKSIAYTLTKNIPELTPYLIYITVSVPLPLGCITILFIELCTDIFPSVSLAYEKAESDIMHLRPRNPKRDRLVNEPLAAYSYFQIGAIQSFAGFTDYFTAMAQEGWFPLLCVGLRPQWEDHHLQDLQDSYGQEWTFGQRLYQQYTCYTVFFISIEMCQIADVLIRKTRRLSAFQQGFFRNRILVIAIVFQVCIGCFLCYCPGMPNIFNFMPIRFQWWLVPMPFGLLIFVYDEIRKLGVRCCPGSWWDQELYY
Sequence (P18597 whole entry partner): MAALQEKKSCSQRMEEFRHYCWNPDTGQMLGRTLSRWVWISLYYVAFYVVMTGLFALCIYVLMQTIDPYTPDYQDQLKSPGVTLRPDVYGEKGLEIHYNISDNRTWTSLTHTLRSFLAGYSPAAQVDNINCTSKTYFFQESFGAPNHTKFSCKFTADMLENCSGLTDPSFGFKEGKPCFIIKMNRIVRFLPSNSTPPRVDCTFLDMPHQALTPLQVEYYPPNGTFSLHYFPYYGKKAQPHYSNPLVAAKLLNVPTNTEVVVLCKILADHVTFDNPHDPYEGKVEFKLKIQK
experiment summary: determination of compounds' inhibition of H+/K+ ATPase enzyme activity (malachite green, OD 620 nm)
condition parameters: enzyme extracted from rabbit stomach tissue; pH 6.5; ATP 500 μM; 37° C.
Listed here: items and their measured IC50.
Field format: number, assumed nM, no unit text.

As a guide, the following entries are already answered.
Cc1ccccc1-c1c2c(nn1Cc1cccc(C(=O)OC(C)(C)C)c1)CN(C)C2: 589
COC(=O)c1cc(Cn2nc3c(c2-c2ccccc2C)CN(C)C3)ccc1F: 39

-- ask For the compound CN1Cc2nn(Cc3cccc(C(=O)OC(C)(C)C(N)=O)c3)c(-c3ccccc3F)c2C1 , what IC50 is on record?
-- reply 225

-- ask For the compound COC(=O)c1cccc(Cn2nc3c(c2-c2ccc(F)cc2F)CN(C)C3)c1 , what IC50 is on record?
-- reply 61.4

* * *

system name: H+/K+ ATPase (Oryctolagus cuniculus, UniProt P27112)
Construct: The stomach tissue of the rabbit was separated
experiment summary: determination of compounds' inhibition of H+/K+ ATPase enzyme activity (malachite green, OD 620 nm)
condition parameters: enzyme extracted from rabbit stomach tissue; pH 6.5; ATP 500 μM; 37° C.
measured metric: IC50

As a guide, the following entries are already answered.
CCOC(=O)c1cccc(Cn2nc3c(c2-c2ccccc2F)CN(C)C3)c1: 0.0904 µM
COC(=O)c1cccc(Cn2nc3c(c2-c2ccccc2C)CN(C)C3)c1: 0.0366 µM
CCCCOC(=O)c1cccc(Cn2nc3c(c2-c2ccccc2F)CN(C)C3)c1: 0.0968 µM
CN1Cc2nn(Cc3cccc(C(=O)NC4CC4)c3)c(-c3ccccc3F)c2C1: 0.539 µM

-- ask Query for H+/K+ ATPase (Oryctolagus cuniculus, UniProt P27112): what IC50 does the record show for COC(=O)c1cccc(Cn2nc3c(c2-c2ccccc2F)CN(C)C3)c1 ?
-- reply 0.0776 µM
